meta.source: ChEMBL document CHEMBL5506027

Method: Tmax in mouse at 5 mg/kg, po measured upto 24 hrs by LC-MS/MS analysis
Type: ADME, organism-based
Measurement context: in vivo
Recorded metric: Tmax (h)
Field format: number, assumed h, no unit text.

Ask: Which Tmax value belongs to Cc1c(Br)c(Br)c2c3c1nc(N1CCNCC1)n3CCC2 [SEL-120 FREE BASE] ?
Reply: 1.3

----------
Method: Oral bioavailability in mouse at 30 mg/kg measured upto 24 hrs by LC-MS/MS analysis
Assay type: ADME, organism-based
Measurement context: in vivo
Recorded metric: bioavailability
Units required after the number.

Ask: Reported bioavailability, compound FC(F)c1c(Br)c(Br)cc2c1nc(N1CCNCC1)n2C1CCOCC1 : ____
Reply: 67%
